Each entry below carries its recorded growth.
test system: SW-620 colon; test: NCI-60 one-dose screen, 48 h (100 = growth as untreated, 0 = no growth, -100 = all killed); conditions: 10 µM
Compounds without any hit were thinned out: in the full panel of roughly 83,000, 20% have a hit.
Write it as a number; the unit % goes unstated.

Recorded growth, per entry:
CC(=C\C(=O)Oc1ccc2c3c1OC1C(O)CCC4(O)C(C2)N(CC2CCC2)CCC314)/C=C1\CCCc2ccccc21 (stereo not drawn) | 28.4
Cc1c2oc3c(C)ccc(C(=O)N[C@@H]4C(=O)N[C@H](C(C)C)C(=O)N5CCC[C@H]5C(=O)N(C)CC(=O)N(C)[C@@H](C(C)C)C(=O)OC4C)c3nc-2c(C(=O)N[C@@H]2C(=O)N[C@H](C(C)C)C(=O)N3CC(=O)C[C@H]3C(=O)N(C)CC(=O)N(C)[C@@H](C(C)C)C(=O)OC2C)c(N)c1=O (stereo partly drawn) | 6.93
CC[C@@]12CC(C(=O)OC)=C3Nc4cc5c(cc4[C@@]34CCN(C[C@H]3O[C@H]31)[C@@H]24)[C@@H]1[C@H](O5)[C@@H](O)[C@@]2(CC)CC(C(=O)OC)=C3Nc4cc(OC)ccc4[C@@]34CCN1[C@@H]24 | 16.3
C[C@H]1[C@@H](CC(=O)N[C@@H](Cc2coc3ccccc23)B(O)O)O[C@@H]2OC3(C)CC[C@H]4[C@H](C)CC[C@@H]1[C@@]24OO3 | 2.66
CC[C@]12C=CCN3CC[C@@]4(c5ccc(OC)cc5N(C)[C@H]4[C@@](O)(C(=O)OC)[C@@H]1OC(=O)CCC[P+](c1ccc(F)cc1)(c1ccc(F)cc1)c1ccc(F)cc1)[C@@H]32 | 45.3

Could you now consider this next compound?
// field: growth; key: "CC1=C(COCCOC(=O)c2ccc(S(=O)(=O)F)cc2)C2=C(C)C3(CC3)[C@@](C)(O)C(=O)C2=C1" ; value = 62.3
